- targetDesc: PARP (Homo sapiens, UniProt P09874)
- Sequence (P09874 whole entry): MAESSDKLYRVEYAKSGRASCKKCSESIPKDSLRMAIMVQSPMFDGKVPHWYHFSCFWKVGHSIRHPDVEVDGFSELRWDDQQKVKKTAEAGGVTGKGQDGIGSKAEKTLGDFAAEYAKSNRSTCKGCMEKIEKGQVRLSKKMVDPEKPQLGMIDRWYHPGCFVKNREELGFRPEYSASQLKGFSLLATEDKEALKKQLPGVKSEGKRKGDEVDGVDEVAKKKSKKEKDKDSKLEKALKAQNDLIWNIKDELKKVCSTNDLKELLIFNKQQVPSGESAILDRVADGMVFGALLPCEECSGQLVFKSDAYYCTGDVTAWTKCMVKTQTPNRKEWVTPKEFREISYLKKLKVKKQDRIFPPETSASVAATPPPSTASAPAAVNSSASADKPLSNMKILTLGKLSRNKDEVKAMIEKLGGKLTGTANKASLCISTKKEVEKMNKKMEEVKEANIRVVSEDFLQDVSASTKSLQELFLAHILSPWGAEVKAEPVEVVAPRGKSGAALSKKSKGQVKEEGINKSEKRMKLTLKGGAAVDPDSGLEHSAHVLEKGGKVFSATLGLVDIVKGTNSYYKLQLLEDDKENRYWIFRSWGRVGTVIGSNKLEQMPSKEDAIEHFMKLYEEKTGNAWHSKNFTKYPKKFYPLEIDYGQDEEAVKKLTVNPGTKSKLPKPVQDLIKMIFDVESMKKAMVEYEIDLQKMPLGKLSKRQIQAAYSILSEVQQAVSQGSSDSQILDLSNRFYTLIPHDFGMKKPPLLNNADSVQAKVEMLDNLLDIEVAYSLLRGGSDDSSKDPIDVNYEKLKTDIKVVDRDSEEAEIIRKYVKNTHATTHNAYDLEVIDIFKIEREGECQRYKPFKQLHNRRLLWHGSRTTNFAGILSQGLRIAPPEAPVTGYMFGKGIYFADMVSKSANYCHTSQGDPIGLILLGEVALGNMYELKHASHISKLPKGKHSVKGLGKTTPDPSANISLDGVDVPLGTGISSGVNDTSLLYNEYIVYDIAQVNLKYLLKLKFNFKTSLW
- assayDetails: Measurement of PARP inhibitory activity (PARP Inhibition Assay kit, ADP-ribosylated histone)
- conditionInfo: HSA PARP Enzyme, histone-coated plate, absorbance at 450 nm
- Method: PARP activity is determined by measuring the amount of ADP-ribosylated histone protein applied onto an assay plate according to the manual of a measurement kit “PARP Inhibition Assay” (produced by Travigen, catalog number: 4669-96-K). […] The reaction was terminated by adding 50 μL/well of 0.2 N hydrochloric acid solution, and the absorbance at 450 nm was measured with a microplate reader.
valueType: IC50
Field note: include the unit after the figure.

Some compounds with known IC50 results, for comparison:
{"compound": "COc1ccc([C@H]2NC(=O)c3cccc4c3N2CC[C@@H]4N)cc1F (racemic)", "valueType": "IC50", "reportedResult": "42 nM"}
{"compound": "N[C@H]1CCN2c3c(cccc31)C(=O)N[C@@H]2c1cccnc1 (racemic)", "valueType": "IC50", "reportedResult": "170 nM"}

Challenge: Checklist item: IC50 tested on PARP (Homo sapiens, UniProt P09874), entry N[C@H]1CCN2c3c(cccc31)C(=O)N[C@@H]2c1ccc(OCCO)cc1 (racemic) , value?
Response given: 6 nM

Challenge: GET /values?readout=IC50&system=PARP (Homo sapiens, UniProt P09874)&item= CN(C)c1ccc([C@@H]2NC(=O)c3cccc4c3N2CC[C@@H]4N)cc1 (racemic)
Response given: 49 nM

Challenge: # get_value(readout= IC50, system= PARP (Homo sapiens, UniProt P09874)) for COc1ccc(C2NC(=O)c3cccc4c3N2CCC4N)cc1 (stereo not drawn)
Response given: 58 nM

Challenge: Find the measured IC50: item O=C1CCN2c3c1cccc3C(=O)NC2c1ccc([N+](=O)[O-])cc1 (stereo not drawn) , target or system PARP (Homo sapiens, UniProt P09874).
Response given: 240 nM

---

Consider the following molecules and their measured melting point readings.

Example cases with answers are listed next.
{"molecule": "N[C@H]1CCN2c3c(cccc31)C(=O)N[C@@H]2c1ccc(OCCO)cc1 (racemic) [Example 93]", "melting point": "96.8 to 97.6 °C"}
{"molecule": "COc1ccc(C2NC(=O)c3cccc4c3N2CCC4O)cc1 (centres unmarked) [Example 2]", "melting point": "95.7 to 99.6 °C"}
{"molecule": "COc1ccc(C2NC(=O)c3ccc(Cl)c4c3N2CCC4=O)cc1 (centres unmarked) [Example 25]", "melting point": "209.4 to 213.1 °C"}
{"molecule": "CON=C1CCN2c3c(cccc31)C(=O)NC2c1ccc(OC)c(O)c1 (centres unmarked) [Example 55]", "melting point": "185.3 to 189.8 °C"}

Continue with the next molecule.
Challenge: Record request: melting point value, item COc1ccc(C2NC(=O)c3cccc4c3N2CCC4=O)cc1Cl (centres unmarked) [Example 42]
Response given: 174.5 to 176.9 °C

---

valueType: melting point

Solved cases below.
{"molecule": "O=C1NC(c2ccc(Br)cc2)N2CCC(=NO)c3cccc1c32 (stereo not drawn) [Example 79]", "melting point": "230 to 236.9 °C"}
{"molecule": "COc1ccc(C2NC(=O)c3cccc4c3N2CCC4NCc2ccc(N(C)C)cc2)cc1 (stereo not drawn) [Example 13]", "melting point": "73.2 to 75.6 °C"}
{"molecule": "COc1ccc([C@H]2NC(=O)c3cccc4c3N2CC[C@@H]4N)cc1F (racemic) [Example 99]", "melting point": "128.5 to 137.4 °C"}
{"molecule": "COc1ccc([C@@H]2NC(=O)c3cccc4c3N2CC[C@H]4N)cc1 [Example 7]", "melting point": "110 to 112.7 °C"}
{"molecule": "CN(C)c1ccc(C2NC(=O)c3cccc4c3N2CCC4=O)cc1 (stereo not drawn) [Example 48]", "melting point": "198.7 to 202.6 °C"}
{"molecule": "O=C1CCN2c3c1cccc3C(=O)NC2c1ccc(F)c(F)c1 (stereo not drawn) [Example 20]", "melting point": "184 to 189.6 °C"}
{"molecule": "COc1ccc(C2NC(=O)c3cccc4c3N2CCC4=O)cc1[N+](=O)[O-] (stereo not drawn) [Example 10]", "melting point": "275.4 to 277.1 °C"}
{"molecule": "O=C1CCN2c3c1cccc3C(=O)NC2c1ccc(SC(F)(F)F)cc1 (stereo not drawn) [Example 45]", "melting point": "178.2 to 180.9 °C"}

Challenge: # query: melting point of entry COc1ccc(C2NC(=O)c3cccc4c3N2CCC4=NO)cc1Cl (stereo not drawn) [Example 70]
Response given: 220 °C (dec.)
